Provenance of the data: patent US9926297B2

Parameter: EC50. Scope: all listed entries.
Biological target: UniProt:P11229
Sequence (P11229 1-460): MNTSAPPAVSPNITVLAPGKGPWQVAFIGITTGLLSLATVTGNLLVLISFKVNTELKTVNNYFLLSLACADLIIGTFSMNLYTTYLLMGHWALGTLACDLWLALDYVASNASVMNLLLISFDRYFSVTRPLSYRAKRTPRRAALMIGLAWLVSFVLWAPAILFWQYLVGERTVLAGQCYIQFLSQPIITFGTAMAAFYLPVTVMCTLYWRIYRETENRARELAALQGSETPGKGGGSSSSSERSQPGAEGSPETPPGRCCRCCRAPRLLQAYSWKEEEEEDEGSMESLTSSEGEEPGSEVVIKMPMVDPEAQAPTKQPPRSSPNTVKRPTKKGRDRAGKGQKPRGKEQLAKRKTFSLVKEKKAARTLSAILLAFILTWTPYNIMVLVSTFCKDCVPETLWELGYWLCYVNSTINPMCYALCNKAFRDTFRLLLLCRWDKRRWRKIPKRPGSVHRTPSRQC
Experiment: Alphascreen Surefire phospho-ERK1/2 functional assay, M1
Assay type: cell-based
Conditions: CHO cells stably expressing human M1; phospho-ERK1/2; * = variable results; read-out: pEC50 M1 (converted)

Compound | Value
CCOC(=O)N1CCC2(CC(N3CCC([C@@H]4CCCN4c4ncccn4)CC3)C2)C1 (single isomer, unassigned) [2-81 Isomer 2] | > 20 µM
CCOC(=O)N1CCC2(CC(N3CCC(N4CCCC4c4ccn[nH]4)CC3)C2)C1 (single isomer, unassigned) [2-126 Isomer 2] | > 20 µM

Turning now to a further record.
Read the entry CCOC(=O)N1CCC2(CC(N3CCC([C@@H]4CCCN4CC)CC3)C2)C1 (single isomer, unassigned) [2-61 Isomer 2] and write its reported EC50.
> 20 µM
